experiment: in vitro; conditions: human
Property: Papp; scope: individual molecules
Write the answer as a number in ×10⁻⁶ cm/s, unit excluded.

Cn1c(=O)c2c(ncn2C)n(C)c1=O [Caffeine, caffeine]
30

Turning now to a further record.
Reported Papp for CN(C)C(=O)C(CCN1CCC(O)(c2ccc(Cl)cc2)CC1)(c1ccccc1)c1ccccc1 [Loperamide, loperamide] : what is it?
9.26

* * *

Property: CT50,brain (time at half steady state concentration of brain channel); scope: individual compounds
tested on: human BBB-on-a-chip (hBMEC, HBVP, NHA); experiment: BBB-on-a-chip permeability, apical to basolateral (blood to brain channel), LC-MS/MS; settings: 1 μM dosed; simple Emax model fit
Write the answer as a number in h, unit excluded.

See these solved cases before continuing.
NC(=O)N1c2ccccc2C=Cc2ccccc21 [Carbamazepine, carbamazepine]
3.27
CN(C)C(=O)C(CCN1CCC(O)(c2ccc(Cl)cc2)CC1)(c1ccccc1)c1ccccc1 [Loperamide, loperamide]
20.04
CNCCCN1c2ccccc2CCc2ccccc21
34.47
Nc1nc(OC(c2ccc(-c3cccc(F)c3)cc2)C(F)(F)F)cc(-c2ccc(C[C@H](N)C(=O)O)cc2)n1 (some centres unmarked)
0.16

Turning now to a further record.
Reported CT50,brain (time at half steady state concentration of brain channel) for CCc1nn(CCCN2CCN(c3cccc(Cl)c3)CC2)c(=O)n1CCOc1ccccc1 : what is it?
37.79

* * *

assay: BBB-on-a-chip permeability, apical to basolateral (blood to brain channel), LC-MS/MS; details: human
Property: Papp at 24 h, 1 μM; scope: individual molecules
Write the answer as a number in ×10⁻⁶ cm/s, unit excluded.

CNCCCN1c2ccccc2CCc2ccccc21
32.5
CCc1nn(CCCN2CCN(c3cccc(Cl)c3)CC2)c(=O)n1CCOc1ccccc1
3.84

Turning now to a further record.
Reported Papp at 24 h, 1 μM for NC(=O)N1c2ccccc2C=Cc2ccccc21 [Carbamazepine, carbamazepine] : what is it?
15.8

* * *

tested on: human BBB-on-a-chip (hBMEC, HBVP, NHA); experiment: BBB-on-a-chip permeability, apical to basolateral (blood to brain channel), LC-MS/MS; details: 1 μM dosed; simple Emax model fit; sampling 1, 4, 9, 24 h
Property: CT50,blood (time at half steady state concentration of blood channel); scope: individual compounds
Write the answer as a number in h, unit excluded.

NC(=O)N1c2ccccc2C=Cc2ccccc21 [Carbamazepine, carbamazepine]
1.98

Reported CT50,blood (time at half steady state concentration of blood channel) for CC[C@]1(O)C[C@H]2CN(CCc3c([nH]c4ccccc34)[C@@](C(=O)OC)(c3cc4c(cc3OC)N(C=O)[C@H]3[C@@](O)(C(=O)OC)[C@H](OC(C)=O)[C@]5(CC)C=CCN6CC[C@]43[C@@H]65)C2)C1 : what is it?
2.99

Reported CT50,blood (time at half steady state concentration of blood channel) for CCc1nn(CCCN2CCN(c3cccc(Cl)c3)CC2)c(=O)n1CCOc1ccccc1 : what is it?
9.01

Reported CT50,blood (time at half steady state concentration of blood channel) for CNCCCN1c2ccccc2CCc2ccccc21 : what is it?
57.44

Reported CT50,blood (time at half steady state concentration of blood channel) for CN(C)C(=O)C(CCN1CCC(O)(c2ccc(Cl)cc2)CC1)(c1ccccc1)c1ccccc1 [Loperamide, loperamide] : what is it?
58.46

Reported CT50,blood (time at half steady state concentration of blood channel) for Nc1nc(OC(c2ccc(-c3cccc(F)c3)cc2)C(F)(F)F)cc(-c2ccc(C[C@H](N)C(=O)O)cc2)n1 (stereo partly drawn) : what is it?
6.80
